Assay: Inhibition of alpha-glucosidase (unknown origin) using 3 mM p-NPG solution at 50 uM relative to control
Conditions: Rattus norvegicus
Give measured inhibition for each item. Keep answers brief.
Answers are plain numbers, in %.

Solved cases (5 shown):
molecule: CCCCC[C@H](C)O[C@@H]1O[C@H](CO[C@@H]2OC[C@](O)(CO)[C@H]2O)[C@@H](O)[C@H](O)[C@H]1O
inhibition, %: 8.62

molecule: CC(C)O[C@@H]1O[C@H](CO)[C@@H](O)[C@H](O)[C@H]1O
inhibition, %: 7.31

molecule: CCCCC[C@H](C)O[C@@H]1O[C@H](CO[C@@H]2OC[C@@H](O)[C@H](O)[C@H]2O)[C@@H](O)[C@H](O)[C@H]1O
inhibition, %: 8.54

molecule: C=CCc1ccc(O)c(O)c1 [HYDROXYCHAVICOL]
inhibition, %: 9.08

molecule: C=CCc1ccc(O[C@@H]2O[C@H](CO)[C@@H](O)[C@H](O)[C@H]2O)c(O[C@@H]2O[C@H](CO)[C@@H](O)[C@H](O)[C@H]2O)c1
inhibition, %: 7.02

Would you mind listing inhibition for each of the following molecules?
1. OC[C@H]1O[C@@H](OCc2ccccc2)[C@H](O)[C@@H](O)[C@@H]1O
2. COc1cc(O[C@@H]2O[C@H](CO)[C@@H](O)[C@H](O)[C@H]2O)ccc1O [TACHIOSIDE]
3. COc1cc(C[C@@H](O)CO)ccc1O[C@@H]1O[C@H](CO)[C@@H](O)[C@H](O)[C@H]1O

output:
1: 12; 2: 4.6; 3: 11.7

Each recorded value in this set is attributed to ChEMBL document CHEMBL3352738.
